# Tested on: DabiOBP14
# Type: binding, Dioryctria abietella
# Condition Description: ligand at 20 μM; DabiOBP14/1-NPN each 2 μM; Tris-HCl pH 7.4; NB = no binding
Measurement Name: OBP14 F.D. (%) fluorescence displacement percent

{"Compound": "CCCCCCCCCCCCCCCCO", "Unit Label": "%", "Experimental Value": 31.97}
{"Compound": "CC(C)=CCC/C(C)=C/CC/C(C)=C/CO", "Unit Label": "%", "Experimental Value": 36.20}
{"Compound": "COc1cc(C=O)cc(OC)c1O", "Unit Label": "%", "Experimental Value": 34.32}
{"Compound": "CCCCCCCCCCCC(=O)OC [Methyl laurate]", "Unit Label": "%", "Experimental Value": 12.60}
{"Compound": "CCCCCCCCCCCC(C)=O", "Unit Label": "%", "Experimental Value": 32.61}
{"Compound": "CCCCCCCCCCC", "Unit Label": "%", "Experimental Value": 6.47}
{"Compound": "CC1=CCC(C(C)C)=CC1", "Unit Label": "%", "Experimental Value": 24.46}
{"Compound": "CCCCCCCCCCCC=O", "Unit Label": "%", "Experimental Value": 3.43}
{"Compound": "C=CC(=C)CCC=C(C)C", "Unit Label": "%", "Experimental Value": 34.84}
{"Compound": "CCCCCCCCC=O", "Unit Label": "%", "Experimental Value": 23.55}
{"Compound": "CC1=CCC2C(C1)C2(C)C (centres unmarked)", "Unit Label": "%", "Experimental Value": 29.92}
{"Compound": "CCCCC/C=C\\C=C\\C(=O)OCC [Ethyl-(2E,4Z)-decadienoate]", "Unit Label": "%", "Experimental Value": 68.07}
{"Compound": "N#Cc1nn(-c2c(Cl)cc(C(F)(F)F)cc2Cl)c(N)c1[S+]([O-])C(F)(F)F (centres unmarked)", "Unit Label": "%", "Experimental Value": 29.70}
{"Compound": "CC(=O)CCC=C(C)C", "Unit Label": "%", "Experimental Value": 34.39}
{"Compound": "CC1=CCC2CC1C2(C)C (centres unmarked)", "Unit Label": "%", "Experimental Value": 29.24}
{"Compound": "O=C(OCc1ccccc1)c1ccccc1 [Benzyl benzoate]", "Unit Label": "%", "Experimental Value": 49.39}
{"Compound": "CCCCCC(C)O (centres unmarked)", "Unit Label": "%", "Experimental Value": 24.86}
{"Compound": "O=Cc1ccccc1", "Unit Label": "%", "Experimental Value": 38.35}
{"Compound": "C=CC(C)(O)CCC=C(C)CCC=C(C)C (mixture of isomers)", "Unit Label": "%", "Experimental Value": 37.52}
{"Compound": "CCCCCCCCCC=O", "Unit Label": "%", "Experimental Value": 21.35}
{"Compound": "CCCCCC(=O)OCC [Ethyl hexanoate]", "Unit Label": "%", "Experimental Value": 29.43}
{"Compound": "CCCCCCOC(C)=O [Hexyl acetate]", "Unit Label": "%", "Experimental Value": 29.22}
{"Compound": "CC(=O)c1ccccc1", "Unit Label": "%", "Experimental Value": 36.22}
